Value source: ChEMBL document CHEMBL1154048

Test system: Rattus norvegicus
Test: Antiarrhythmic activity against adrenaline-induced arrhythmia in iv dosed rat assessed as inhibition of cardiac rhythm disturbance administered 15 mins before adrenaline challenge
Type: functional
Details: Heart
READOUT: ED50

Before answering, review these 6 worked examples.
• Cc1ccccc1N1CCN(CC(O)CN2CCC(c3ccccc3)(c3ccccc3)C2=O)CC1.Cl.Cl (centres undefined) = 1.4 mg/kg
• CCOc1ccccc1N1CCN(CC(O)CN2CCC(c3ccccc3)(c3ccccc3)C2=O)CC1.Cl.Cl (centres undefined) = 1.1 mg/kg
• COc1ccccc1N1CCN(CC(O)CN2CCC(c3ccccc3)(c3ccccc3)C2=O)CC1.Cl.Cl (centres undefined) = 2.05 mg/kg
• Cl.Cl.O=C1N(CC(O)CN2CCN(c3ccccc3)CC2)CCC1(c1ccccc1)c1ccccc1 (centres undefined) = 1.9 mg/kg
• O=C1CCCN1CC(O)CN1CCN(c2ccccc2)CC1 (centres undefined) = 7.6 mg/kg
• CC(C)NCC(O)COc1cccc2ccccc12 (centres undefined) = 7.6 mg/kg

-- ask # query: ED50 of entry Cl.Cl.O=C1N(CC(O)CN2CCN(c3ccccc3C(F)(F)F)CC2)CCC1(c1ccccc1)c1ccccc1 (centres undefined)
-- reply 3.9 mg/kg

-- ask // repeat for c1ccc(CC2=NCCN2)cc1 and report
-- reply 1.05 mg/kg

###

Target: Adrenergic receptor alpha-2 (Rattus norvegicus, UniProt P22086+P19328+P22909)
Assay: Displacement of [3H]clonidine from alpha2 adrenergic receptor in rat cerebral cortex by liquid scintillation counting
Type: tissue-based
// Not fulfilled strictly below 6 in pKi; Fulfilled otherwise

Field: example entries. Status: answers known.
• Cl.Cl.O=C1N(CC(O)CN2CCN(c3ccc(F)cc3)CC2)CCC1(c1ccccc1)c1ccccc1 (centres undefined) = Not fulfilled
• O=C1CCCN1CC(O)CN1CCN(c2ccccc2)CC1 (centres undefined) = Not fulfilled
• Cc1ccccc1N1CCN(CC(O)CN2CCC(c3ccccc3)(c3ccccc3)C2=O)CC1.Cl.Cl (centres undefined) = Fulfilled
• O=C1CCCN1CC(O)CN1CCN(C(c2ccccc2)c2ccccc2)CC1 (centres undefined) = Not fulfilled
• COc1ccccc1N1CCN(CC(O)CN2CCC(c3ccccc3)(c3ccccc3)C2=O)CC1.Cl.Cl (centres undefined) = Fulfilled

-- ask Entry CCOc1ccccc1N1CCN(CC(O)CN2CCC(c3ccccc3)(c3ccccc3)C2=O)CC1.Cl.Cl (centres undefined) : is its pKi no less than 6?
-- reply Fulfilled

-- ask // repeat for Cl.Cl.O=C1N(CC(O)CN2CCN(c3ccccc3)CC2)CCC1(c1ccccc1)c1ccccc1 (centres undefined) and report
-- reply Fulfilled

-- ask // repeat for Cl.Cl.O=C1N(CC(O)CN2CCN(c3ccccc3C(F)(F)F)CC2)CCC1(c1ccccc1)c1ccccc1 (centres undefined) and report
-- reply Not fulfilled
